- targetSystem: CgDM9CP-1 (rCgDM9CP-1) (Magallana gigas, UniProt K1QRB6)
- Construct: recombinant, E. coli Transetta (DE3); two DM9 domains; mutants in pET-28a with N-terminal 6xHis; 5MH2 is D22A, 5MH3 is K43A
- Sequence (K1QRB6 1-143): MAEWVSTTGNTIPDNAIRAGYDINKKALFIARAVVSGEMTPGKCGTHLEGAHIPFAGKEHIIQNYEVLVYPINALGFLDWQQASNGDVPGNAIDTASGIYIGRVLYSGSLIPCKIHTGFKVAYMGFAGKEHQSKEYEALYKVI
- assayNotes: ITC
- measurementContext: 25°C, PBS (pH 7.2 in table, 7.4 in methods), N = 1
propertyMeasured: Kd (µM)
Write down the numeric answer in µM and omit the unit.

Task: Request body: readout Kd, system CgDM9CP-1 (rCgDM9CP-1) (Magallana gigas, UniProt K1QRB6), query OC[C@H]1OC(O)[C@@H](O)[C@@H](O)[C@@H]1O (stereo partly drawn) [D-mannose] . Return the value.
Output: 123
